Can you tell me GI50 for the items I'm about to list?
Tested on: COLO 205
Experiment: NCI tumour cell line growth inhibition, 48 h
The source made the active and inactive calls. Rule as the data show it: active = GI50 up to about 1.1 µM and inactive = higher.

See these solved cases before continuing.
COC(=O)c1ccccc1C1CN=NC12Cc1ccc3ccccc3c1C2=O (configuration not stated) ... > 100 µM (inactive)
CCOC(=O)c1ccc(Nc2nc3ccccc3nc2-c2cccs2)cc1 ... 96.6 µM (inactive)
C[N+](C)(C)C1=NNC2=Nc3ccccc3SC2=C1 ... 15 µM (inactive)
O=S1(=O)CS(=O)(=O)OCCCO1 ... > 100 µM (inactive)
O=CC[C@H]1C(=O)C[C@@H]2CCC[C@@H]21 ... > 100 µM (inactive)

Hi there! I need GI50 for each item below, if you can.
1. Cc1ccc(NC(=O)C(=O)Cc2cccc[n+]2[O-])cc1C
2. CN(Cc1ccccc1)C1(N(C)Cc2ccccc2)CC1

Result string:
1. > 100 µM (inactive)
2. > 100 µM (inactive)

The values you see were collected from ChEMBL document CHEMBL1201862.
